subject-of-test: 5-HT transporter (Rattus norvegicus)
Construct: from tissue; host or cells: rat brain synaptosomes (P2 fraction) from medulla and pons
test: 5-HT uptake inhibition in rat brain synaptosomes (medulla and pons), [3H]-5-HT
Format: biochemical
quantity-measured: inhibition at 10 µM (%)
Provide only the numeric value, understood in %.

For 5-HT transporter (Rattus norvegicus), give the measured inhibition at 10 µM of the entry CCOC(=O)c1cccc(NC(=O)N2CCC3(CC2)CN(Cc2cccc(C#N)c2)C(=O)O3)c1 [Example 61]
69

New cases:
Output reported inhibition at 10 µM of the compound COc1ccc([N+](=O)[O-])cc1CN1CC2(CCN(CC(=O)Nc3cc(C)nn3C)CC2)OC1=O [Example 76] on 5-HT transporter (Rattus norvegicus).
51

# lookup: 5-HT transporter (Rattus norvegicus) inhibition at 10 µM, key = O=C1OC2(CCN(C(=O)c3ccc(-c4ccccc4)cc3)CC2)CN1Cc1cccc(Br)c1 [Example 104]
89

Write inhibition at 10 µM of COc1ccc([N+](=O)[O-])cc1CN1CC2(CCN(C(=O)c3cccc(N(C)C)c3)CC2)OC1=O [Example 138] ; system used: 5-HT transporter (Rattus norvegicus)
65

Enter recorded inhibition at 10 µM with 5-HT transporter (Rattus norvegicus) for COc1ccc(NC(=O)N2CCC3(CC2)CN(Cc2ccc4ccccc4c2)C(=O)O3)cc1 [Example 52] here.
94

Give the observed inhibition at 10 µM of COc1ccc([N+](=O)[O-])cc1CN1CC2(CCN(C(=S)NCC3CCCO3)CC2)OC1=O (stereo not shown) [Example 17] for 5-HT transporter (Rattus norvegicus).
50

* * *

Known inhibition at 10 µM of a selection of molecules
subject-of-test: 5-HT transporter (Rattus norvegicus)
Construct: from tissue; host or cells: rat brain synaptosomes (P2 fraction) from medulla and pons
test: 5-HT uptake inhibition in rat brain synaptosomes (medulla and pons), [3H]-5-HT
Assay type: biochemical
Give the number; % is assumed, so skip it.

Param request: inhibition at 10 µM | system 5-HT transporter (Rattus norvegicus) | item COc1ccc(-c2noc(CN3CCC4(CC3)CN(Cc3ccc(F)c(F)c3)C(=O)O4)n2)cc1
50

For 5-HT transporter (Rattus norvegicus), give inhibition at 10 µM of the listed molecule: O=C1OC2(CCN(C(=O)c3ccc(Cl)nc3)CC2)CN1Cc1ccc2ccccc2c1
66

Report value only: inhibition at 10 µM, 5-HT transporter (Rattus norvegicus), O=C(CN1CCC2(CC1)CN(Cc1ccccc1C(F)(F)F)C(=O)O2)Nc1ccc(OC(F)(F)F)cc1
72

Now consider a different molecule.
# return inhibition at 10 µM of Cc1ccc(C(=O)N2CCC3(CC2)CN(Cc2ccc(F)c(F)c2)C(=O)O3)cc1 (system: 5-HT transporter (Rattus norvegicus))
67

* * *

subject-of-test: 5-HT transporter (Rattus norvegicus, UniProt P31652)
Construct: from tissue; host or cells: rat brain synaptosomes (P2 fraction) from medulla and pons
Sequence (P31652 whole entry): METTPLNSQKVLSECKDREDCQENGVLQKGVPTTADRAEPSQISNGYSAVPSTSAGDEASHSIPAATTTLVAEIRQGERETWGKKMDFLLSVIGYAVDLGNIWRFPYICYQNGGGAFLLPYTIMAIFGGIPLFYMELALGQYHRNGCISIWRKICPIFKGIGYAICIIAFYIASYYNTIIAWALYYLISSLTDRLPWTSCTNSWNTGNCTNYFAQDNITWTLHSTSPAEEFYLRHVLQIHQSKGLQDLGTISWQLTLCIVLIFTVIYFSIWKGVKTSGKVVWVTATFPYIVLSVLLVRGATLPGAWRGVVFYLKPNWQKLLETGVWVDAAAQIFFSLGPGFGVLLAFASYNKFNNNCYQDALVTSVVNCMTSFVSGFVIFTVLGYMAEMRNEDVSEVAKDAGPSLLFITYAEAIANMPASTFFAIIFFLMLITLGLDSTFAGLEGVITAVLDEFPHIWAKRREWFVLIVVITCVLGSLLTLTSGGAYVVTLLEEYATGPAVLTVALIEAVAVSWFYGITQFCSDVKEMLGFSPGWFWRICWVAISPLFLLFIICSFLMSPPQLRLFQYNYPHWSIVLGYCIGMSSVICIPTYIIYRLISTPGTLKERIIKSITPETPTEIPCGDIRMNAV
test: 5-HT uptake inhibition in rat brain synaptosomes (medulla and pons), [3H]-5-HT
Format: biochemical
Protocol: a) Method for Determining Noradrenalin and 5-HT Uptake Inhibition: […] The particular uptake is measured in a 96-well microtitre plate. […] The incubation time is 7.5 minutes for [^3H]-NA and 5 minutes for [^3H]-5-HT. […] After sealing with a top Seal® (Packard) and establishing an equilibrium (around 5 hours), radioactivity is determined in a “Trilux 1450 Microbeta” (Wallac). […]
quantity-measured: inhibition at 10 µM

Field: example entries. Status: answers known.
In one line, give reported inhibition at 10 µM of the entry O=C1OC2(CCN(C(=S)NCc3ccccc3)CC2)CN1Cc1cccc(Br)c1 .
54%

Please give measured inhibition at 10 µM of the following entry: Cc1cc(C)cc(CN2CC3(CCN(C(=O)c4ccccn4)CC3)OC2=O)c1
67%

Respond only with inhibition at 10 µM recorded for COc1cccc(NC(=O)N2CCC3(CC2)CN(Cc2ccc(F)c(F)c2)C(=O)O3)c1
56%

More entries:
Supply reported inhibition at 10 µM belonging to this compound: COc1ccc([N+](=O)[O-])cc1CN1CC2(CCN(C(=S)NCC3CCCCC3)CC2)OC1=O
55%

Read the entry N#Cc1ccccc1CN1CC2(CCN(C(=O)c3ccc([N+](=O)[O-])cc3Cl)CC2)OC1=O and write its reported inhibition at 10 µM.
71%

Quote inhibition at 10 µM reported for O=C1OC2(CCN(Cc3ccc([N+](=O)[O-])cc3)CC2)CN1Cc1ccc(F)c(F)c1 please.
66%

Name the recorded inhibition at 10 µM of the item COc1ccc([N+](=O)[O-])cc1CN1CC2(CCN(C(=O)c3cccnc3Oc3ccccc3)CC2)OC1=O in your answer.
64%

Determine its reported inhibition at 10 µM: CCOC(=O)c1ccc(NC(=O)N2CCC3(CC2)CN(Cc2ccc4ccccc4c2)C(=O)O3)cc1
65%

* * *

subject-of-test: human μ opioid receptor (Homo sapiens)
Construct: purchased NEN, Zaventem, Belgium RB-HOM; host or cells: CHO-K1 cells (recombinant expression, membrane preparation)
Sequence (P35372 whole entry): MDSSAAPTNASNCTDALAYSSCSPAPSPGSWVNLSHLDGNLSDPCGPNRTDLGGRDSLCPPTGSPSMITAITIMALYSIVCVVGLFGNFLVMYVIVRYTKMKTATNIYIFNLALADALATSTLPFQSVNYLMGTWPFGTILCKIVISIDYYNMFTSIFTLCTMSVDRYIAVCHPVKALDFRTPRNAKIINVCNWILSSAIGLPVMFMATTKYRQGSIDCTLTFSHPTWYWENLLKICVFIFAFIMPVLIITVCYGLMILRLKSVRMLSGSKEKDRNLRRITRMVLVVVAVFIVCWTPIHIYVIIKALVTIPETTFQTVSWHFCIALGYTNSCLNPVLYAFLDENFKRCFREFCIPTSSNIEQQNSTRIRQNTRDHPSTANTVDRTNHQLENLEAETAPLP
test: affinity for the human μ opioid receptor, displacement of [3H]-naloxone, CHO-K1 membrane preparation
recorded-conditions: percentage inhibition of specific binding of [3H]-naloxone
Consider the following compounds and their measured inhibition at 1 µM readings.
The reply should be a number in %, with the unit left off.

Some entries whose results are on file:
Dear colleague, please send me the reported inhibition at 1 µM for CC(CC(=O)O)CC(=O)N1CCC2(CC1)CN(Cc1ccc(F)c(F)c1)C(=O)O2 (centres unmarked) when you can.
50

Specify reported inhibition at 1 µM for the compound shown: O=C1OC2(CCN(C(=O)c3ccc(Br)cc3)CC2)CN1Cc1ccc(F)cc1
67

Give the reported inhibition at 1 µM for this compound. CC(C)(CC(=O)O)C(=O)N1CCC2(CC1)CN(Cc1ccc(F)c(F)c1)C(=O)O2
56

Recall and state the measured inhibition at 1 µM for Cc1ccc(CN2CC3(CCN(C(=O)CC(C)(C)CC(=O)O)CC3)OC2=O)cc1 .
46

// fetch inhibition at 1 µM given entry CCOc1ccc(C(=O)N2CCC3(CC2)CN(Cc2ccc(C)cc2)C(=O)O3)cc1
70

Recall and state the measured inhibition at 1 µM for CC(=O)Nc1ccc(C(=O)N2CCC3(CC2)CN(Cc2ccc(F)c(F)c2)C(=O)O3)cc1 .
78

Annotate the compound Cc1cc(C)cc(CN2CC3(CCN(C(=O)c4cccc(N(C)C)c4)CC3)OC2=O)c1 with its measured inhibition at 1 µM.
75

Indicate its recorded inhibition at 1 µM; the compound in question is O=C1OC2(CCN(C(=O)c3ccc(Cl)cc3)CC2)CN1Cc1cccc(Br)c1
64

---
# return recorded inhibition at 1 µM for entry O=C(O)COCC(=O)N1CCC2(CC1)CN(Cc1ccc(F)c(F)c1)C(=O)O2
48

Consider the compound COC(=O)CC(=O)N1CCC2(CC1)CN(Cc1ccc(C#N)cc1)C(=O)O2 and give its recorded inhibition at 1 µM.
65

Kindly indicate its recorded inhibition at 1 µM. Item: CC(CC(=O)O)CC(=O)N1CCC2(CC1)CN(Cc1ccccc1F)C(=O)O2 (centres unmarked)
41

* * *

The compounds listed here are annotated with their inhibition at 1 µM.
subject-of-test: human μ opioid receptor (Homo sapiens)
Construct: purchased NEN, Zaventem, Belgium RB-HOM; host or cells: CHO-K1 cells (recombinant expression, membrane preparation)
test: affinity for the human μ opioid receptor, displacement of [3H]-naloxone, CHO-K1 membrane preparation
recorded-conditions: percentage inhibition of specific binding of [3H]-naloxone
Report the figure in % without appending any unit label.

Example results:
Give inhibition at 1 µM for N#Cc1ccc(CN2CC3(CCN(C(=O)C45CC6CC(CC(C6)C4)C5)CC3)OC2=O)cc1 [Example 98]
75

Quickly give me recorded inhibition at 1 µM for O=C(O)COCC(=O)N1CCC2(CC1)CN(Cc1ccc(C(F)(F)F)cc1)C(=O)O2 [Example 70]
42

Complete the entry with inhibition at 1 µM for O=C1OC2(CCN(S(=O)(=O)Cc3cccc(Cl)c3)CC2)CN1Cc1ccccc1-c1ccccc1 [Example 149]
61

Now examine the next entry.
Identify inhibition at 1 µM associated with the compound N#Cc1ccccc1CN1CC2(CCN(C(=O)c3ccc(F)cc3F)CC2)OC1=O [Example 94]
62

* * *

Quick reference: inhibition at 10 µM of the listed items.
subject-of-test: 5-HT transporter (Rattus norvegicus, UniProt P31652)
Construct: from tissue; host or cells: rat brain synaptosomes (P2 fraction) from medulla and pons
test: 5-HT uptake inhibition in rat brain synaptosomes (medulla and pons), [3H]-5-HT
Type: biochemical
Note: unit % is implicit; provide only the numeric part.

// solved cases for inhibition at 10 µM follow
For the molecule N#Cc1cccc(CN2CC3(CCN(C(=S)NCC4CCCCC4)CC3)OC2=O)c1 , give its measured inhibition at 10 µM value.
69

Name the recorded inhibition at 10 µM of the molecule listed here: CCCCC(=O)N1CCC2(CC1)CN(Cc1cc([N+](=O)[O-])ccc1OC)C(=O)O2
71

From here, focus on the item given below.
Answer with the recorded inhibition at 10 µM of COc1ccc([N+](=O)[O-])cc1CN1CC2(CCN(Cc3cccc([N+](=O)[O-])c3)CC2)OC1=O only.
70

Taken from patent US8153795B2.
